# System: biotinyl-Leu-oxazolone
# test: self-aminoacylation, catalytic enhancement (BLO) (fold over background); higher = more active; k-Seq, kA / k0A0; sequences stand for … in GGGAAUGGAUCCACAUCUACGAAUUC…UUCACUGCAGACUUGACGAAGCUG
Fewer inactive variants are shown than the library holds.
Reported self-aminoacylation values for the following sequences.
resultType: self-aminoacylation

1. CCACACUUCAAACAAUCGUUC [Fam1B.1 aminoacylation ribozyme variant]: 0.623
2. AUUCACCUACGUCAUCGGGUG [Fam2.2 aminoacylation ribozyme variant]: 6.98
3. AAGUUUGCUAUUAGACGCAAG [Fam3.1 aminoacylation ribozyme variant]: 0.691
4. ACUACCCUGGUCAUCGUGUGA [Fam2.1 aminoacylation ribozyme variant]: 3.39
5. CUACUUCAAACAAUUGUUCUG [Fam1A.1 aminoacylation ribozyme variant]: 0.611
6. CCACACAUCCAGCAAUCGGUC [Fam1B.1 aminoacylation ribozyme variant]: 0.983
7. AAGUUUGCUAAUAGGCUCAAG [Fam3.1 aminoacylation ribozyme variant]: 0.715
8. AAGUUUGCUACUAGUCGCCAG [Fam3.1 aminoacylation ribozyme variant]: 0.749
9. AUUACGCUGGUCAUAGAGUGA [Fam2.1 aminoacylation ribozyme variant]: 3.54
10. CUACUUGAAACAAUCGGUUUG [Fam1A.1 aminoacylation ribozyme variant]: 0.89
